# ASSAY_NOTES: Preparation and stability of crystal suspensions of microcrystalline paclitaxel with solutions of different tri-O-acylglycerols
# TEST_CONDITIONS: SEM 200× and 1000×
ASSAY_METRIC: microcrystals intact in SEM images

CCCCCCC(=O)OCC(COC(=O)CCCCCC)OC(=O)CCCCCC: did not remain intact
CCCCCCCCCCCCCC(=O)OCC(COC(=O)CCCCCCCCCCCCC)OC(=O)CCCCCCCCCCCCC: did not remain intact
CCCCCCCCCCCC(=O)OCC(COC(=O)CCCCCCCCCCC)OC(=O)CCCCCCCCCCC: did not remain intact

The reported numbers originate from patent US20240082463A1.
